Reported OD450 ratio sample/blank by item:
molecular target: soluble IL-6R in cynomolgous plasma (cynomolgus monkey, UniProt A0A2K5WN54); assay: ELISA 2, periplasmic extract; competitor IL-6; cyno plasma
readout-kind: OD450 ratio sample/blank

# binder, number
data = [
    ("IL6RPMP103C7 (VHH) VHH: EVQLVESGGGLVQAGGSLSLSCATSGRTISDDTMAWFRQAPGKEREFVATITFSGARTHYSDSVRDRFTISRDNAKNTVYLQMDSLKSEDTAVYYCAASTKYYSSTYNYIHPAFYDIWGQGTQVTVSS", 0.175),
    ("IL6RPMP101E1 (VHH) VHH: EVQLVESGGGLVQAGGSLRLSCAASGFAFDDYAIGWFRQAPGKEREGVSSISSSNGNTYYADSVRGRFTISSDNAKNTVYLQMNSLKPEDTGVYYCAAIWGIFFNEKMPVGAYDYWGQGTQVTVSS", 0.805),
]
